B1: Zinc finger MYM-type protein 3, residues 405 to 444; numbered along this chain, Q14202 (parent)
chain: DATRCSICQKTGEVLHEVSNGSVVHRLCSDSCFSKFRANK

Variants of: B1
testName: abundance fitness (aPCA) (normalised: wild type 0, dead -1); higher = more abundant; growth selection in yeast, the domain comes from the species named
conditionLabel: Homo sapiens
Please enter condition met where abundance fitness is greater than or equal to -0.4, and condition not met where it is lower.

Lookup: In plain terms: is recorded abundance fitness at least -0.4 for `D1W` ?
Found: condition not met

Lookup: Now the same for `H16Y`
Found: condition not met

Lookup: Now the same for `H16T`
Found: condition met

Lookup: Now the same for `S34Q`
Found: condition met

Lookup: Now the same for `H25A`
Found: condition met

Lookup: Now the same for `E17P`
Found: condition not met

Lookup: Now the same for `L27M`
Found: condition met

Lookup: Now the same for `R26C`
Found: condition met

Lookup: Now the same for `L15S`
Found: condition met

Lookup: Now the same for `H16L`
Found: condition not met

Lookup: Now the same for `I7G`
Found: condition met

Lookup: Now the same for `K40P`
Found: condition met

Lookup: Now the same for `F33Y`
Found: condition met

Lookup: Now the same for `S29Q`
Found: condition not met

Lookup: Now the same for `R26D`
Found: condition not met

Lookup: Now the same for `V18I`
Found: condition met

Lookup: Now the same for `L15N`
Found: condition met

Lookup: Now the same for `K40V`
Found: condition met

Lookup: Now the same for `V14F`
Found: condition met

Lookup: Now the same for `T11K`
Found: condition met

Lookup: Now the same for `C8K`
Found: condition not met

Lookup: Now the same for `K40W`
Found: condition met

Lookup: Now the same for `S22N`
Found: condition met
